- systemTested: EPHB1 (UniProt P54762)
- Sequence (P54762 whole entry, looked up): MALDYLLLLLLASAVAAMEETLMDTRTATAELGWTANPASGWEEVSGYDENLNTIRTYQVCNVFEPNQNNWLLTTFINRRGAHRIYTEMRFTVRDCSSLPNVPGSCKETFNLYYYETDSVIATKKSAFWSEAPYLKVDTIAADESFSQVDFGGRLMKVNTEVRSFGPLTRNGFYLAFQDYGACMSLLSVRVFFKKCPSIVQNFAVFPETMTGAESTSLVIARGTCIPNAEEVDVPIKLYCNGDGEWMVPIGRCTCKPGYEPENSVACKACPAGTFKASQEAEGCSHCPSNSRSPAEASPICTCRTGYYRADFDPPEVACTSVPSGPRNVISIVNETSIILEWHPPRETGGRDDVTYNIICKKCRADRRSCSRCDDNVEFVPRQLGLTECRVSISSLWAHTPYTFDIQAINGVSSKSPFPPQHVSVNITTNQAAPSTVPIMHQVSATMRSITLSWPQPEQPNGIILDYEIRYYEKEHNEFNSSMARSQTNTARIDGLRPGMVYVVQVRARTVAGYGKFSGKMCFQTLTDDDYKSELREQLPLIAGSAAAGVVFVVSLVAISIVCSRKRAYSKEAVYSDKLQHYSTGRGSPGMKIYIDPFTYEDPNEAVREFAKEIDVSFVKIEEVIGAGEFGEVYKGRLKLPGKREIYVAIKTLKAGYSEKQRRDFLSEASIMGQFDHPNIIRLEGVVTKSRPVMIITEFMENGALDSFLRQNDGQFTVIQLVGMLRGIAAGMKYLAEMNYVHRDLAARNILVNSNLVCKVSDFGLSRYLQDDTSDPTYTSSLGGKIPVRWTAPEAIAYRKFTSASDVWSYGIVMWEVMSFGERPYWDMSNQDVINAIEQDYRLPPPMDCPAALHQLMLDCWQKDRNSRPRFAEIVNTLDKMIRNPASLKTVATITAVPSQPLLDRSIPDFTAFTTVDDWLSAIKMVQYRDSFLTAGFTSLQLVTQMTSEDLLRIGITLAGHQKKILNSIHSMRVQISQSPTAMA
- assayComment: phosphorylation enrichment, bacterial display (enrichment ratio); higher = better substrate or ligand; peptides without Tyr show the background;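 further: 11-residue human phosphosite peptides and single-mutation variants displayed on the E. coli surface, counted by deep sequencing, each peptide's frequency after selection divided by its frequency in the unselected input library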;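 further: frequency after pTyr selection over input frequency; kinase dosed for 20-30% of maximal phosphorylation in three min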
Could you label it YES if measured phosphorylation enrichment is 0.7 or higher, and NO otherwise?

| residueCodes | class |
| --- | --- |
| VIVRMYDYHVL [RPF2_Y109_G106V] | YES |
| TKDTFYKQPMF [GBA_Y451] | NO |
| KKDGPYDVVVL [PARK7_Y67_E64D] | YES |
| PDMHSYMVRYN [GRIN2D_Y732] | NO |
| NQLNDYIFSFD [RARS1_Y516_R512Q] | NO |
| QNTGYYYDLYG [PTPN11_Y62_D61Y] | YES |
| DELDKYSEVLK [TPM1_Y60_A63V] | NO |
| KLQKKYGPIYS [CYP17A1_Y60] | NO |
| SENFTYIWWLN [PSG4_Y271_K267E_YF] | YES |
| QKMADYSNKLF [PDPR_Y104_YF] | NO |
| EWQQTYTYDSG [JUP_Y20] | NO |
| GCRSKHVGLWG [KCNQ1_Y184_Y184H] | NO |

----------
Item-by-item account of phosphorylation enrichment
- systemTested: FGFR1 (UniProt P11362)
- Sequence (P11362 whole entry, looked up): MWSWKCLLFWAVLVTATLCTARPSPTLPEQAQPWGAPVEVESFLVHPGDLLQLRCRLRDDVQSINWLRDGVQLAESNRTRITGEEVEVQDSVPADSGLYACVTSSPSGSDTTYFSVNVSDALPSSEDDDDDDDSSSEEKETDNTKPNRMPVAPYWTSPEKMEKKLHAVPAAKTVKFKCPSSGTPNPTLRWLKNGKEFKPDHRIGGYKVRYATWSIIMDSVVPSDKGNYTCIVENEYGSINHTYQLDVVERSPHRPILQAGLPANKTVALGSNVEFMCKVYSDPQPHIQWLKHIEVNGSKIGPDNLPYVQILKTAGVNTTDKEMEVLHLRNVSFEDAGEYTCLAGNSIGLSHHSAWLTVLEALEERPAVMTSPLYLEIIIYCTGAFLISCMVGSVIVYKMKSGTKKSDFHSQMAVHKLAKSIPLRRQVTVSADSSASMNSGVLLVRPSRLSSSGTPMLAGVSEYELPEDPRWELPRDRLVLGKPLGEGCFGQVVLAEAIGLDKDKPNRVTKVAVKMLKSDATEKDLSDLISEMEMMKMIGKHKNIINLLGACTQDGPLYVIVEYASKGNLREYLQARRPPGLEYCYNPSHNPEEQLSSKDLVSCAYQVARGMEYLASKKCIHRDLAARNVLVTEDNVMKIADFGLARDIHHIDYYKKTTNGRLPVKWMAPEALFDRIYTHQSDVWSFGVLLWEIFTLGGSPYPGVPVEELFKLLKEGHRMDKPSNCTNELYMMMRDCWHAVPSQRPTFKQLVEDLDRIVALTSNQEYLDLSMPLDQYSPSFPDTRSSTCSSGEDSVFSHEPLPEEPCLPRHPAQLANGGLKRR
- assayComment: phosphorylation enrichment, bacterial display (enrichment ratio); higher = better substrate or ligand; peptides without Tyr show the background

| residueCodes | phosphorylation enrichment |
| --- | --- |
| KLKRSYPSPDI [USP8_Y717_S718P] | 0.352 |
| DQNVEYKGTVW [FHL1_Y117] | 0.455 |
| IIRRLYLKWHP [SACS_Y4333] | 0.474 |
| CATIHYNYMCN [TP53_Y234_T230A] | 0.6 |
| EQSGSYIWVPA [DLG1_Y895] | 8.59 |
| KKDGPYDVVVL [PARK7_Y67_E64D] | 0.449 |
| PLDGEHFTLQI [TP53_Y327_Y327H] | 0.587 |
| VEDPEYAVTQP [STOML2_Y124_L129P] | 0.646 |
| TEAEPYFRSLR [NPHS1_Y1138_YF] | 0.399 |
| PRQRRYVFFFS [PTEN_Y174_S170R_YF] | 0.62 |
| LTERSYSFVTT [ACTA1_Y200_G199S] | 0.973 |
| EACPSYSHVVL [CHST6_Y168_R166P] | 0.538 |
| LTSKPYAFTAR [NDUFS1_Y236] | 0.67 |
| MARDISRASYY [ALK_Y1278_Y1278S] | 0.464 |

----------
- systemTested: EPHB1 (UniProt P54762)
- assayComment: phosphorylation enrichment, bacterial display (enrichment ratio); higher = better substrate or ligand; peptides without Tyr show the background
# phosphorylation enrichment values compiled below

| residueCodes | systemTested | phosphorylation enrichment |
| --- | --- | --- |
| GGKFSYLKVGH [GRM3_Y480_YF] | EPHB1 (UniProt P54762) | 0.409 |
| CQAHGYFCQPI [STK11_Y156_L160P] | EPHB1 (UniProt P54762) | 0.35 |
| TGILLHGLASR [QARS1_Y57_Y57H] | EPHB1 (UniProt P54762) | 0.28 |
| SDVDLYQVRIA [PSMD9_Y70_T74I] | EPHB1 (UniProt P54762) | 0.594 |
| IQRSLYDRPAS [PDGFRA_Y762] | EPHB1 (UniProt P54762) | 0.488 |
| QNTGNYFDLFG [PTPN11_Y62_D61N_YF] | EPHB1 (UniProt P54762) | 27.6 |
| FADIAYNFRHG [PAH_Y166_YF] | EPHB1 (UniProt P54762) | 0.522 |
| QYQEKYKQMEQ [HCN4_Y531_V534M] | EPHB1 (UniProt P54762) | 0.61 |
| RGEKQYLATPL [ALOX12_Y295_A298T] | EPHB1 (UniProt P54762) | 0.598 |
| EDNPEYMRLRN [ADD2_Y31_D28N] | EPHB1 (UniProt P54762) | 0.518 |
| YGMQLYQNYMH [GRB14_Y347] | EPHB1 (UniProt P54762) | 9.11 |
| TEYIQYVRRKN [MAX_Y73_M74V] | EPHB1 (UniProt P54762) | 0.465 |
| MCVKSYTIHFS [F5_Y2153_Y2149C_YF] | EPHB1 (UniProt P54762) | 0.718 |
| QTLTDYDIRFF [CSNK2A1_Y131_YF] | EPHB1 (UniProt P54762) | 0.626 |
